Provenance of the data: PubChem BioAssay AID1159580

Experiment: chemical genetic growth profiling, strain panel (AID 1159580);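 also: tested at 20 µM; growth read once vehicle control cultures reached saturation at 30 °C; 1 = growth at the plate median or of vehicle wells; lower values mean less growth of the strain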
Settings: S. cerevisiae deletion strains, growth OD, locus YJR066W, strain TOR1
The campaign covered roughly 5,500 compounds. About 2,000 (36%) were called active. About 18% were inconclusive and are not listed. Rule as the data show it: active = normalized growth mostly below about 0.91 (no sharp cut-off); inconclusive = no clear call, values can overlap the other calls; inactive = mostly above about 0.92. This is one part of the list.
Outcomes: yes (1) for active, no (0) for inactive

[
  {
    "Compound": "CSc1nc(NC(C)C)nc(NC(C)C)n1",
    "Class": "no (0)"
  },
  {
    "Compound": "O=C(Nc1ccccc1C(=O)O)OCC1c2ccccc2-c2ccccc21",
    "Class": "no (0)"
  },
  {
    "Compound": "O=C1/C(=C/c2c[nH]c3ccccc23)CSc2ccccc21",
    "Class": "no (0)"
  },
  {
    "Compound": "COC(=O)C[C@H]1C(C)(C)[C@@H](O)[C@@H]2CC3=C4CC(O)O[C@@H](c5ccoc5)[C@]4(C)CCC3[C@@]1(C)C2=O (stereo partly specified)",
    "Class": "no (0)"
  },
  {
    "Compound": "O=C1Nc2ccccc2/C1=C\\c1c[nH]c2ccccc12",
    "Class": "yes (1)"
  },
  {
    "Compound": "CC1CCCC(C)N1NC(=O)c1ccc(Cl)c(S(N)(=O)=O)c1 (stereo unspecified)",
    "Class": "no (0)"
  }
]
